Origin of measurements: ChEMBL document CHEMBL1201862

Assignment: determine reported GI50 for the given molecules.
# Test system: HCT-116
# protocol-details: NCI tumour cell line growth inhibition, 48 h
The source made the active and inactive calls. No stated cut-off is given here; in the data, active = GI50 up to about 1.1 µM and inactive = higher.

CC1(C)C(C#N)=[N+]([O-])C(C)(C)N1O    > 100 µM (inactive)
COc1cc(/C=C/C(=O)OC2C(O)C3CC(OC(=O)c4cc(OC)c(OC)c(OC)c4)CC2N3C)cc(OC)c1OC (stereo unspecified)    20.7 µM (inactive)
O=c1c2cc3c(cc2[nH]c2ncccc12)OCO3    > 10 µM (inactive)
O=c1cc(-c2cccnc2)[nH]c2cc3c(cc12)OCO3    4.8 µM (inactive)

Would you mind listing GI50 for each of the following molecules?
1. O=c1ccn(C2OC(CN(O)CCC3C(CO)OC(n4ccc(=O)[nH]c4=O)C3O)C(O)C2O)c(=O)[nH]1 (stereo unspecified)
2. COc1ccc2c(c1)C(N)=C(Cc1ccncc1)C2=O

["> 100 µM (inactive)", "> 100 µM (inactive)"]
